subject.of.test: hLPYK (Homo sapiens, UniProt P30613)
Construct: full-length liver isozyme; homotetramer; purified or partially purified
Sequence (P30613 1-543 isoform P30613-2): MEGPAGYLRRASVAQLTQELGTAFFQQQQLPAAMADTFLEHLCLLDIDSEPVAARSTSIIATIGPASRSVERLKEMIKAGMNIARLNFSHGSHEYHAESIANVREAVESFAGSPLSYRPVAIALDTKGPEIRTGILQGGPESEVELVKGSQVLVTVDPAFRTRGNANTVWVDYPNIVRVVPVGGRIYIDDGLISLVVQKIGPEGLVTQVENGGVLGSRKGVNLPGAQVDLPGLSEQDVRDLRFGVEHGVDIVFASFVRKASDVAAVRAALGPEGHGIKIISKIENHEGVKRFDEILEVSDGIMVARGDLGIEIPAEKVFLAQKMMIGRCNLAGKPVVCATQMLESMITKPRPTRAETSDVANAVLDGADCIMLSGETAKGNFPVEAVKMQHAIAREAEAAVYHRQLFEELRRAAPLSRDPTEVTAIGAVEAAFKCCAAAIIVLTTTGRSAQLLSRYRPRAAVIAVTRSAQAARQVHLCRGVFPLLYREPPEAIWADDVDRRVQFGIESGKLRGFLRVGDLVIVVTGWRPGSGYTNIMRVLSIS
assay.comment: enzyme kinetics, allosteric linkage analysis
condition.info: allosteric inhibitor site; effector binding in absence of PEP; read-out: Kix-Ala
recorded.metric: Kd (µM)
The response must be a number in µM with no trailing unit.

Q: For the compound C[C@H](N)C(=O)O , give its measured Kd value.
Ans: 250
